Molecular target: T1, human cholecystokinin-2 receptor (human, UniProt P32239 1-447)
T1 construct: whole, on cells; also called CCK-2R; CCK-2 receptor
T1 sequence (looked up): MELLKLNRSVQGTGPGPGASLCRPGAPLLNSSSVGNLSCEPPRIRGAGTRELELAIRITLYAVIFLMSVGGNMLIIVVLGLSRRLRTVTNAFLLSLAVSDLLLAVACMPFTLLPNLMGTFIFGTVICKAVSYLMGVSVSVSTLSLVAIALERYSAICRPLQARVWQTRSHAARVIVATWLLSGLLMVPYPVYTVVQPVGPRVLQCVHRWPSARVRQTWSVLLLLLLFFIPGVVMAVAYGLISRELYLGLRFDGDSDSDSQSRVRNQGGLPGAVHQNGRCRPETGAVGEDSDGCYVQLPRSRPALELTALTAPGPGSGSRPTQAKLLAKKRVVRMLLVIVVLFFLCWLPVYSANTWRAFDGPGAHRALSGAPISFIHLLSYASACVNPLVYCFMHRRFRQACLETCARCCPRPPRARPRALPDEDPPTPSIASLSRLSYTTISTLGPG
Assay: SPA competition vs [125I]-CCK-8s, membranes
Starred links: 1 amine or outer side, 2 acyl side, 3 side chain; linkers in the order of their positions; H or OH if unused. Non-standard residues stand in square brackets, D forms with d. No end group written: not given here. *: point of attachment. Phe(4-CH2SO3H) = N[C@@H](Cc1ccc(CS(=O)(=O)O)cc1)C(=O)O; sY = N[C@@H](Cc1ccc(OS(=O)(=O)O)cc1)C(=O)O; C18 diacid = O=C(O)CCCCCCCCCCCCCCCCC(=O)*; C16 diacid = O=C(O)CCCCCCCCCCCCCCC(=O)*; γGlu = O=C(O)[C@H](CCC(=O)[*:2])N[*:1]; βAsp = O=C(O)[C@H](CC(=O)[*:2])N[*:1]; NMeF = CN[C@@H](Cc1ccccc1)C(=O)O; dNMeD = CN[C@H](CC(=O)O)C(=O)O; Nle = CCCC[C@H](N)C(=O)O; AEEA = NCCOCCOCC(=O)O
Measurement Name: IC50 (nM)
# unit: nM | format: bare number

Field IC50 (entry D[sY]FGW[Nle][dNMeD][NMeF]-NH2 (N-terminus assumed; SMILES CCCC[C@H](NC(=O)[C@H](Cc1c[nH]c2ccccc12)NC(=O)CNC(=O)[C@H](Cc1ccccc1)NC(=O)[C@H](Cc1ccc(OS(=O)(=O)O)cc1)NC(=O)[C@@H](N)CC(=O)O)C(=O)N(C)[C@H](CC(=O)O)C(=O)N(C)[C@@H](Cc1ccccc1)C(N)=O, X = Nle or Nal) [Asp-sTyr-Phe-Gly-Trp-Nle-DMeAsp-MePhe-amide] ) reads 920

Field IC50 (entry D[sY]RGW[Nle][dNMeD][NMeF]-NH2 (X = Nle or Nal) [Asp-sTyr-Arg-Gly-Trp-Nle-DMeAsp-MePhe-amide] ) reads 1500

Field IC50 (entry D[sY]SGW[Nle][dNMeD][NMeF]-NH2 (N-terminus assumed; SMILES CCCC[C@H](NC(=O)[C@H](Cc1c[nH]c2ccccc12)NC(=O)CNC(=O)[C@H](CO)NC(=O)[C@H](Cc1ccc(OS(=O)(=O)O)cc1)NC(=O)[C@@H](N)CC(=O)O)C(=O)N(C)[C@H](CC(=O)O)C(=O)N(C)[C@@H](Cc1ccccc1)C(N)=O, X = Nle or Nal) [Asp-sTyr-Ser-Gly-Trp-Nle-DMeAsp-MePhe-amide] ) reads 3600

Field IC50 (entry {C18 diacid-γGlu-AEEA-AEEA}-D[sY][Nle]GW[Nle][dNMeD]W-NH2 (SMILES CCCC[C@H](NC(=O)[C@H](Cc1ccc(OS(=O)(=O)O)cc1)NC(=O)[C@H](CC(=O)O)NC(=O)COCCOCCNC(=O)COCCOCCNC(=O)CC[C@H](NC(=O)CCCCCCCCCCCCCCCCC(=O)O)C(=O)O)C(=O)NCC(=O)N[C@@H](Cc1c[nH]c2ccccc12)C(=O)N[C@@H](CCCC)C(=O)N(C)[C@H](CC(=O)O)C(=O)N[C@@H](Cc1c[nH]c2ccccc12)C(N)=O, X = Nle or Nal) ) reads 3000

Field IC50 (entry {C16 diacid-γGlu-AEEA-AEEA}-E[sY]LGW[Nle][dNMeD][NMeF]-NH2 (X = Nle or Nal) ) reads 590

Field IC50 (entry [βAsp][Phe(4-CH2SO3H)][Nle]GW[Nle][dNMeD][NMeF]-NH2 (N-terminus assumed; SMILES CCCC[C@H](NC(=O)[C@H](Cc1ccc(CS(=O)(=O)O)cc1)NC(=O)C[C@H](N)C(=O)O)C(=O)NCC(=O)N[C@@H](Cc1c[nH]c2ccccc12)C(=O)N[C@@H](CCCC)C(=O)N(C)[C@H](CC(=O)O)C(=O)N(C)[C@@H](Cc1ccccc1)C(N)=O, X = Nle or Nal) [bAsp-Phe(4-sulfomethyl)-Nle-Gly-Trp-Nle-DMeAsp-MePhe-amide] ) reads 2900
